The reported numbers originate from the supplement of paper PMC9170038.

Test system: MS2 coat protein
Assay: apparent KD of MS2 coat protein; higher = weaker reporter binding
Conditions: Eterna round: R107; input ligand: theophylline 20 uM
endpoint.name: apparent KD of MS2 coat protein (nM)
State the answer as a number, implicitly in nM.

// below: answered sequences
seq_text="AUGCACAUCUAGGAUACCAGCACCCUUAUGUCACUAGUUAACAUGAGGAUCACCCAUGUUUGCCCUUGGCAGCCUCAUUGACCAU [theeternabot_exclusion_MS2_Theo_B_9]" endpoint_name="apparent KD of MS2 coat protein" measured_number=92.7
seq_text=UGUAUGGACUGAAGGAGCGGAUGAUAAUCUGAGGAUCACCCAGGUAAUAAGGCGAAAGCCAUCCAGGUAGGUCGCAGUCCAUACU endpoint_name="apparent KD of MS2 coat protein" measured_number=96.9

Then there is this sequence:
State the recorded apparent KD of MS2 coat protein for this entry: AAUCAUGAAAACAUGACAUGAGGAUCACUCCGAGGACCGGUACGGCCGCCACUCGCGAGGAGGCGGACAUGAGGAUCACCCAUGU [#02 Tryptophan A Same State]
265
